Provide the reported Fibrin % cell toxicity of each item.
Test system: primary rat microglia
run parameters: rat
Where a name gives a salt, the structure may show the parent alone.
Give bare numbers, in %.

Recorded results for 2 molecules are shown here.
Cc1ccccc1OCC(O)CO (stereo not shown) [Mephenesin]: 0
COc1ccc(CN(CCN(C)C)c2ncccn2)cc1 [Thonzylamine Hydrochloride]: 0

Look up Fibrin % cell toxicity for the entries below, preserving their order.
1. CS(=O)(=O)CCNCc1ccc(-c2ccc3ncnc(Nc4ccc(OCc5cccc(F)c5)c(Cl)c4)c3c2)o1 [Lapatinib]
2. Clc1ccc(CO/N=C(\Cn2ccnc2)c2ccc(Cl)cc2Cl)c(Cl)c1 [Oxiconazole]
3. CC(C)NNC(=O)c1ccncc1 [Iproniazid]

1: 1; 2: 1; 3: 1

Look up Fibrin % cell toxicity for the entries below, preserving their order.
1. CC(=O)CCCCn1c(=O)c2c(ncn2C)n(C)c1=O [Pentoxifylline]
2. N[C@@H](Cc1c[nH]c2ccccc12)C(=O)O [Tryptophan]
3. O=C(O)CN1C(=O)c2cccc3cccc(c23)C1=O [Alrestatin]

1. 0
2. 1
3. 1

Look up Fibrin % cell toxicity for the entries below, preserving their order.
1. COC(=O)Nc1nc2ccc(C(=O)c3ccccc3)cc2[nH]1 [Mebendazole, reference compound]
2. CC1(C)NC(=O)N(c2ccc([N+](=O)[O-])c(C(F)(F)F)c2)C1=O [Nilutamide]

1: 1; 2: 1

* * *

Tested on: LPS-induced microglia activation
protocol summary: Image-based assay of LPS-induced microglia activation (HTS and dose response)
Type: cell-based, rat
run parameters: Rattus norvegicus, Microglia, dose response, LPS-induced microglia activation; read-out: LPS IC50
Where a name gives a salt, the structure may show the parent alone.
readout label: pIC50
Give bare numbers, as −log10 of the molar value.

C1CCC(C(CC2CCCCN2)C2CCCCC2)CC1 (stereo not drawn) [Perhexiline maleate, reference compound]: 5.52

As a next step, examine the molecule that follows.
Name the recorded pIC50 of the item c1ccc2c(c1)OCC(C1=NCCN1)O2 (stereo not drawn) [Idazoxan hydrochloride, reference compound] in your answer.
5.70

* * *

Test system: primary rat microglia
run parameters: rat
Provide the reported LPS % cell toxicity of each item.
Number first, unit second.

Recorded results for 4 compounds are shown here.
Cc1cc(N)c2ccccc2[n+]1CCCCCCCCCC[n+]1c(C)cc(N)c2ccccc21: 0%
Oc1c(I)cc(I)c2cccnc12 [Diiodohydroxyquinoline]: 0%
CN(C)CC(c1ccc(O)cc1)C1(O)CCCCC1 (centres unmarked): 1%
O=C(O)c1ccccc1C(=O)Nc1ccc(S(=O)(=O)Nc2nccs2)cc1: 1%

As a next step, examine the compound that follows.
Name the recorded LPS % cell toxicity of the item `CCCOc1ccc(C(=O)OCCN(CC)CC)cc1N` in your answer.
0%

* * *

Test system: LPS-induced microglia activation
protocol summary: Image-based assay of LPS-induced microglia activation (HTS and dose response)
Assay type: cell-based, rat
run parameters: primary HTS, 10 μM, LPS-stimulated primary microglia
Provide the reported LPS % inhibition of each item.
Give bare numbers, in %.

Recorded results for 2 compounds are shown here.
CO/N=C(\C(=O)N[C@@H]1C(=O)N2C(C(=O)O)=C(COC(C)=O)CS[C@H]12)c1csc(N)n1 [Cefotaxime]: −8
CC(=O)OCC1=C(C(=O)[O-])N2C(=O)[C@@H](NC(=O)CCCC(N)C(=O)O)[C@H]2SC1.[Na+] (stereo partly drawn) [Cephalosporin C Sodium]: 8

Enter measured LPS % inhibition, system LPS-induced microglia activation, for the compound shown: `CN(C)[C@@H]1C(=O)C(C(N)=O)=C(O)[C@@]2(O)C(=O)C3=C(O)c4c(O)ccc(Cl)c4[C@@](C)(O)[C@H]3C[C@@H]12`
23
